Hi there, I'd appreciate the recorded TGI for every entry that follows.
# Tested on: M14 melanoma
# Test method notes: NCI tumour cell line growth inhibition, 48 h

Field request: TGI | item: `COc1ccc2[nH]cc(C(=O)C(=O)NC34CC5CC(CC(C5)C3)C4)c2c1`
> 100 µM

Field request: TGI | item: `COCCNc1ccc2c3c(cccc13)C(=O)N(CCN(C)C)C2=O`
> 25 µM

Field request: TGI | item: `COc1cc(O)c2c(c1)O[C@@H]1OCC[C@H]21`
> 100 µM

Field request: TGI | item: `CC/C(=C(/c1ccc(O)cc1)c1ccc(OCCN)cc1)c1ccccc1`
3.48 µM

Field request: TGI | item: CCOP12(OCC)NC(=O)OC1(C(F)(F)F)c1ccccc1O2 (stereo unspecified)
> 100 µM

Field request: TGI | item: `COc1ccc(Cn2cc3c(c2-c2ccccc2)CCc2cnoc2-3)cc1OC`
> 100 µM
